system: Rattus norvegicus; experiment: Antinociceptive activity in sc dosed Sprague-Dawley rat assessed as thermal-stimulus induced tail flick latency after 0.5 hrs; assay type: functional
# class assignment by measured ED50: L = under 0.06 µmol/kg, M = from 0.06 µmol/kg up to 1 µmol/kg, H = 1 µmol/kg and over

Prompt: Band for CN1CC[C@]23c4c5ccc(O)c4O[C@H]2[C@@H](O)C=C[C@H]3[C@H]1C5 [MORPHINE] ?
Completion: H

Prompt: Band for "CN1CC[C@]23c4c5ccc(O)c4O[C@H]2[C@H](NCC(=O)OC(C)(C)C)CC[C@@]3(OCCCc2ccccc2)[C@H]1C5" ?
Completion: M

Prompt: Band for "Cl.Cl.O=C(O)CN[C@H]1CC[C@@]2(OCCCc3ccccc3)[C@H]3Cc4ccc(O)c5c4[C@@]2(CCN3CC2CC2)[C@H]1O5" ?
Completion: H

Prompt: Band for "CC(C)(C)OC(=O)CN[C@H]1CC[C@@]2(OCCCc3ccccc3)[C@H]3Cc4ccc(O)c5c4[C@@]2(CCN3CC2CC2)[C@H]1O5" ?
Completion: M

Prompt: Band for "CO[C@@]12CC[C@H](NCC(=O)O)[C@@H]3Oc4c(O)ccc5c4[C@@]31CCN(C)[C@@H]2C5" ?
Completion: M

Prompt: Band for "Cl.Cl.O=C(O)CN[C@@H]1CC[C@@]2(OCCCc3ccccc3)[C@H]3Cc4ccc(O)c5c4[C@@]2(CCN3CC2CC2)[C@H]1O5" ?
Completion: H

Prompt: Band for "CC(C)(C)OC(=O)CN[C@@H]1CC[C@@]2(OCCCc3ccccc3)[C@H]3Cc4ccc(O)c5c4[C@@]2(CCN3CC2CC2)[C@H]1O5" ?
Completion: L

Prompt: Band for "CN1CC[C@]23c4c5ccc(O)c4O[C@H]2[C@@H](NCC(=O)OC(C)(C)C)CC[C@@]3(OCCCc2ccccc2)[C@H]1C5" ?
Completion: M

Prompt: Band for "CO[C@@]12CC[C@@H](NCC(=O)O)[C@@H]3Oc4c(O)ccc5c4[C@@]31CCN(C)[C@@H]2C5" ?
Completion: L

* * *

target: Kappa-type opioid receptor (Cavia porcellus, UniProt P41144); experiment: Displacement of [3H][Ile5,6]deltorphin 2 from delta opioid receptor in Sprague-Dawley rat brain membrane by liquid scintillation counting
Sequence (P41144 whole entry): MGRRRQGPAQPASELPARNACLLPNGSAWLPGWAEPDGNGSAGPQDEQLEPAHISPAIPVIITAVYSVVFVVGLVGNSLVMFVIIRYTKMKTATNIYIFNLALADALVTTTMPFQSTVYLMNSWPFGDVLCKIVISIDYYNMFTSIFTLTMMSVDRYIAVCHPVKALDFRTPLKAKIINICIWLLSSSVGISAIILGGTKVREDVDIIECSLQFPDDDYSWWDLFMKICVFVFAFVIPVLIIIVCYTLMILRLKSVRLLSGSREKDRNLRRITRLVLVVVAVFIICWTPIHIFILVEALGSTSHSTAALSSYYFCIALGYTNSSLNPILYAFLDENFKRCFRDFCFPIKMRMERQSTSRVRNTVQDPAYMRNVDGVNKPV
I'd be grateful if you could share measured Ki for these entries.
Number only, in nM; omit the unit.

Prompt: Test system Kappa-type opioid receptor (Cavia porcellus, UniProt P41144); read-out Ki; what value for "CC(C)(C)OC(=O)CN[C@@H]1CC[C@@]2(OCCCc3ccccc3)[C@H]3Cc4ccc(O)c5c4[C@@]2(CCN3CC2CC2)[C@H]1O5" ?
Completion: 1.77

Prompt: Test system Kappa-type opioid receptor (Cavia porcellus, UniProt P41144); read-out Ki; what value for "CC(C)(C)OC(=O)CN[C@H]1CC[C@@]2(OCCCc3ccccc3)[C@H]3Cc4ccc(O)c5c4[C@@]2(CCN3CC2CC2)[C@H]1O5" ?
Completion: 1.49

Prompt: Test system Kappa-type opioid receptor (Cavia porcellus, UniProt P41144); read-out Ki; what value for "CN1CC[C@]23c4c5ccc(O)c4O[C@@]2(C)C(=O)CC[C@@]3(OCCCc2ccccc2)[C@H]1C5" ?
Completion: 0.54

Prompt: Test system Kappa-type opioid receptor (Cavia porcellus, UniProt P41144); read-out Ki; what value for "Cl.Cl.O=C(O)CN[C@H]1CC[C@@]2(OCCCc3ccccc3)[C@H]3Cc4ccc(O)c5c4[C@@]2(CCN3CC2CC2)[C@H]1O5" ?
Completion: 0.64

Prompt: Test system Kappa-type opioid receptor (Cavia porcellus, UniProt P41144); read-out Ki; what value for "CN1CC[C@]23c4c5ccc(O)c4O[C@H]2[C@@H](NCC(=O)OC(C)(C)C)CC[C@@]3(OCCCc2ccccc2)[C@H]1C5" ?
Completion: 1.26

Prompt: Test system Kappa-type opioid receptor (Cavia porcellus, UniProt P41144); read-out Ki; what value for "CN1CC[C@]23c4c5ccc(O)c4O[C@H]2[C@H](NCC(=O)OC(C)(C)C)CC[C@@]3(OCCCc2ccccc2)[C@H]1C5" ?
Completion: 2.02

Prompt: Test system Kappa-type opioid receptor (Cavia porcellus, UniProt P41144); read-out Ki; what value for "Cl.Cl.O=C(O)CN[C@@H]1CC[C@@]2(OCCCc3ccccc3)[C@H]3Cc4ccc(O)c5c4[C@@]2(CCN3CC2CC2)[C@H]1O5" ?
Completion: 0.65

* * *

assay: Displacement of [3H]U69593 from kappa opioid receptor in guinea pig brain membrane by liquid scintillation counting; type: cell membranes, Cavia porcellus
I'd be grateful if you could share measured pKi for these entries.
Note on pKi: it is the negative log10 of concentration, concentration in mol/L.

Prompt: For "CC(C)(C)OC(=O)CN[C@@H]1CC[C@@]2(OCCCc3ccccc3)[C@H]3Cc4ccc(O)c5c4[C@@]2(CCN3CC2CC2)[C@H]1O5" , what is its reported pKi?
Completion: 9.40

Prompt: For "CN1CC[C@]23c4c5ccc(O)c4O[C@H]2[C@H](NCC(=O)OC(C)(C)C)CC[C@@]3(OCCCc2ccccc2)[C@H]1C5" , what is its reported pKi?
Completion: 9.04

Prompt: For "CC(C)(C)OC(=O)CN[C@H]1CC[C@@]2(OCCCc3ccccc3)[C@H]3Cc4ccc(O)c5c4[C@@]2(CCN3CC2CC2)[C@H]1O5" , what is its reported pKi?
Completion: 8.95

Prompt: For "Cl.Cl.O=C(O)CN[C@H]1CC[C@@]2(OCCCc3ccccc3)[C@H]3Cc4ccc(O)c5c4[C@@]2(CCN3CC2CC2)[C@H]1O5" , what is its reported pKi?
Completion: 9.48

Prompt: For "Cl.Cl.O=C(O)CN[C@@H]1CC[C@@]2(OCCCc3ccccc3)[C@H]3Cc4ccc(O)c5c4[C@@]2(CCN3CC2CC2)[C@H]1O5" , what is its reported pKi?
Completion: 9.46

Prompt: For "CN1CC[C@]23c4c5ccc(O)c4O[C@@]2(C)C(=O)CC[C@@]3(OCCCc2ccccc2)[C@H]1C5" , what is its reported pKi?
Completion: 9.85

Prompt: For "CN1CC[C@]23c4c5ccc(O)c4O[C@H]2[C@@H](NCC(=O)OC(C)(C)C)CC[C@@]3(OCCCc2ccccc2)[C@H]1C5" , what is its reported pKi?
Completion: 9.00

These measurements were taken from ChEMBL document CHEMBL1671784.
